Assay: Rat pharmacokinetic studies of prodrug and released riluzole (IV or oral)
Format: in vivo, Sprague-Dawley rats
Conditions: rat, plasma; fasted male Sprague Dawley rats, IV, prodrug dose 1.4 mg/Kg; read-out: Compound of the disclosure AUClast
Measure Name: AUC(0-t) (ng·h/mL)
Express the result in ng·h/mL but write the number alone.

Query: Reported AUC(0-t) for CN(CC(=O)Nc1nc2ccc(OC(F)(F)F)cc2s1)C(=O)CNC1CNC1 [Example 212] : what is it?
Result: 218

---

Experiment: PK in fasted male mice, prodrug and released riluzole (IV, PO)
Settings: mouse, in vivo, IV 1 mg/kg, read-out: Prodrug T1/2 (Mean) (converted)
Measure Name: half-life

Query: Reported half-life for "CN(CC(=O)Nc1nc2ccc(OC(F)(F)F)cc2s1)C(=O)CNC(=O)CN" : what is it?
Result: 17.4 min

---

Entries and their AUC(0-t)
Assay: Rat pharmacokinetic studies of prodrug and released riluzole (IV or oral)
Assay type: in vivo, Sprague-Dawley rats
Settings: rat, plasma; fasted male Sprague Dawley rats, IV, prodrug dose 2.8 mg/Kg; read-out: Compound of the disclosure AUClast
Express the result in ng·h/mL but write the number alone.

Worked set:
Smiles Data	Unit Annotation	Recorded Value
CN(CC(=O)Nc1nc2ccc(OC(F)(F)F)cc2s1)C(=O)CNC1CCNCC1	ng·h/mL	1910
CCNCC(=O)N(C)CC(=O)Nc1nc2ccc(OC(F)(F)F)cc2s1	ng·h/mL	787

Query: Reported AUC(0-t) for "CNCC(=O)N(C)CC(=O)Nc1nc2ccc(OC(F)(F)F)cc2s1" : what is it?
Result: 219

Query: And the next one, "CC(C)(CN)C(=O)N1CCC[C@H]1C(=O)Nc1nc2ccc(OC(F)(F)F)cc2s1" ?
Result: 2770

Query: And the next one, "CC(C)NCC(=O)N(C)CC(=O)Nc1nc2ccc(OC(F)(F)F)cc2s1" ?
Result: 580

Query: And the next one, "CN(CC(=O)Nc1nc2ccc(OC(F)(F)F)cc2s1)C(=O)CNC(C)(C)C" ?
Result: 1600

Query: And the next one, "NCC(=O)NC1(C(=O)Nc2nc3ccc(OC(F)(F)F)cc3s2)CCC1" ?
Result: 663

Query: And the next one, "NCC1(C(=O)N2CCC[C@@H]2C(=O)Nc2nc3ccc(OC(F)(F)F)cc3s2)CCCCC1" ?
Result: 1440

Query: And the next one, "CC(C)NCC(=O)NC(C)(C)C(=O)Nc1nc2ccc(OC(F)(F)F)cc2s1" ?
Result: 2760

---

Experiment: PK in fasted male mice, prodrug and released riluzole (IV, PO)
Conditions: mouse, in vivo, IV 1 mg/kg, read-out: Prodrug Vss (Mean)
Measure Name: Vd (L/kg)
Express the result in L/kg but write the number alone.

Query: Reported Vd for CN(CC(=O)Nc1nc2ccc(OC(F)(F)F)cc2s1)C(=O)CNC(=O)CN [Example 204] : what is it?
Result: 0.46

---

Assay: PK in fasted male mice, prodrug and released riluzole (IV, PO)
Settings: mouse, in vivo, IV 1 mg/kg, read-out: Prodrug CL (Mean) (converted)
Measure Name: clearance (mL/min/kg)
Express the result in mL/min/kg but write the number alone.

Query: Reported clearance for "CN(CC(=O)Nc1nc2ccc(OC(F)(F)F)cc2s1)C(=O)CNC(=O)CN" : what is it?
Result: 32.3

Each recorded value in this set is attributed to patent US10639298B2.
